Target: Adenosine receptor A1 (Rattus norvegicus)
Sequence (P25099 whole entry): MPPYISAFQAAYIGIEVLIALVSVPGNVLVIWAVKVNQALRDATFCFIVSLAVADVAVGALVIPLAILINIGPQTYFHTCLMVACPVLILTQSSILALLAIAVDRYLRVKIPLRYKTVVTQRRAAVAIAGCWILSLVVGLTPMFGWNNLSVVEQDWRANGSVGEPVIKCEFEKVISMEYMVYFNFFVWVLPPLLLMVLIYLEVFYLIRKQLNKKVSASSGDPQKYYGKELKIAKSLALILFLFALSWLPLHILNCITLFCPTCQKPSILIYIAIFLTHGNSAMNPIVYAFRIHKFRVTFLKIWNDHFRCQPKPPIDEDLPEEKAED
Test: Adenosine A1 receptor binding using [3H][…] in rat cortical membranes
Assay type: cell membranes
pKi: −log10 of the molar value.
observation.type: pKi

- O=C(/C=C/c1c(-c2ccccc2)nn2ccccc12)N1CCCC[C@@H]1CCO: 9.31

----------
Assay: Oral bioavailability in rat (fasted)
Assay type: ADME, organism-based
Conditions: in vivo
Listed below: bioavailability values for each entry.
observation.type: bioavailability

• O=C(O)CCCn1nc(-c2c(-c3ccccc3)nn3ccccc23)ccc1=O = 78%
• O=C(/C=C/c1c(-c2ccccc2)nn2ccccc12)N1CCCC[C@@H]1CCO = 8.8%

----------
System: Rattus norvegicus
Experiment: Diuretic activity was measured in saline (20mL/kg, po)-loaded rat as potassium output at 10 mg/kg dose po
Type: functional, organism-based
Set-up: dose 10 mg/kg
Conditions: Urine
Recorded K by entry
observation.type: K (u equiv kg-1)

* O=c1ccc(-c2c(-c3ccccc3)nn3ccccc23)nn1CCO | 942
* Oc1ccc(-c2c(-c3ccccc3)nn3ccccc23)nn1 | 826
* CCCn1nc(-c2c(-c3ccccc3)nn3ccccc23)ccc1=O | 972
* c1ccc(-c2nn3ccccc3c2-c2ccnnc2)cc1 | 907
* c1ccc(-c2nn3ccccc3c2-c2ccncc2)cc1 | 975
* Cn1nc(-c2c(-c3ccccc3)nn3ccccc23)ccc1=O | 891
* O=C(O)CCn1nc(-c2c(-c3ccccc3)nn3ccccc23)ccc1=O | 901
* O=C(/C=C/c1c(-c2ccccc2)nn2ccccc12)N1CCCC[C@@H]1CCO | 1070
* O=C(O)CCCn1nc(-c2c(-c3ccccc3)nn3ccccc23)ccc1=O | 1150
* O=c1ccc(-c2c(-c3ccccc3)nn3ccccc23)nn1CCCO | 964
* O=C(O)CCCCn1nc(-c2c(-c3ccccc3)nn3ccccc23)ccc1=O | 977
